- measurement description: Terminal half life in Wistar rat brain at 30 mg/kg, po
- Type: ADME, organism-based
- Design: dose 30 mg/kg, route oral
- assay setup: read-out: beta t1/2 (converted)

smiles representation | half-life (h)
Cc1cc(C(=O)O)n[nH]1 | 3

====

- System: Brain
- measurement description: AUC (0 to last) in Wistar rat brain at 30 mg/kg, po
- Format: ADME, organism-based
- Design: time 0 - last, dose 30 mg/kg, route oral
- assay setup: in vivo
parameter: AUClast

smiles representation | measured value
Cc1cc(C(=O)O)n[nH]1 | 631 ng·h/mL

====

- measurement description: Terminal half life in Swiss mouse brain at 10 mg/kg, po
- Assay type: ADME, organism-based
- Set-up: dose 10 mg/kg, route oral
- assay setup: read-out: beta t1/2 (converted)

smiles representation | units | half-life
O=C(O)c1cc2sccc2[nH]1 | h | 1
Oc1noc2cc(Cl)ccc12 | h | 1
O=C(O)c1cc2occc2[nH]1 | h | 0.5
